Hi there, I'd appreciate the recorded collision cross section for every entry that follows.
protocol.summary: collision cross section of modified peptide (TIMS, N2, iRT-aligned); higher = larger / more extended gas-phase ion
experimental.conditions: charge state: 3; modification: Phospho (Y)
Write the value in Å² as a bare number.

Record YVHADAPTNK [_Y(Phospho (Y))VHADAPTNK_] . Reported collision cross section: 420.4

Record DYGNSPLHR [_DY(Phospho (Y))GNSPLHR_] . Reported collision cross section: 444.49

Record VHATSTYR [_VHATSTY(Phospho (Y))R_] . Reported collision cross section: 411.28

Record HIGFVYHPTK [_HIGFVY(Phospho (Y))HPTK_] . Reported collision cross section: 458.98

Record LAEQEAHYAVR [_LAEQEAHY(Phospho (Y))AVR_] . Reported collision cross section: 482.98

Record AYGELPEHAK [_AY(Phospho (Y))GELPEHAK_] . Reported collision cross section: 450.05

Record HHAAYVNNLNVTEEK [_HHAAY(Phospho (Y))VNNLNVTEEK_] . Reported collision cross section: 495.42

Record THLAPYSDELR [_THLAPY(Phospho (Y))SDELR_] . Reported collision cross section: 446.73

Record AYPLADAHLTK [_AY(Phospho (Y))PLADAHLTK_] . Reported collision cross section: 465.22

Record IYHPNVDK [_IY(Phospho (Y))HPNVDK_] . Reported collision cross section: 437.48

Record FHYQDQEFLK [_FHY(Phospho (Y))QDQEFLK_] . Reported collision cross section: 447.23

Record AYDATHLVK [_AY(Phospho (Y))DATHLVK_] . Reported collision cross section: 427.71

====

protocol.summary: collision cross section of modified peptide (TIMS, N2, iRT-aligned); higher = larger / more extended gas-phase ion
experimental.conditions: charge state: 2; modification: Dimethyl (K)
Assign class by collision cross section: not lower than 400 Å² means Satisfied; lower than 400 Å² means Not satisfied.

(Q) // inclusive: collision cross section at least 400 Å²? input: IQTKAGEATVK [_IQTK(Dimethyl (K))AGEATVK_]
(A) Not satisfied

(Q) // inclusive: collision cross section at least 400 Å²? input: TTEETSKPK [_TTEETSK(Dimethyl (K))PK_]
(A) Not satisfied

(Q) // inclusive: collision cross section at least 400 Å²? input: AGPNASIISLKSDK [_AGPNASIISLK(Dimethyl (K))SDK_]
(A) Satisfied

(Q) // inclusive: collision cross section at least 400 Å²? input: GTISAPGKVVTAAAQAK [_GTISAPGK(Dimethyl (K))VVTAAAQAK_]
(A) Satisfied

(Q) // inclusive: collision cross section at least 400 Å²? input: SPSDSGYSYETIGKTTK [_SPSDSGYSYETIGK(Dimethyl (K))TTK_]
(A) Satisfied

(Q) // inclusive: collision cross section at least 400 Å²? input: SPDEAYAIAKK [_SPDEAYAIAK(Dimethyl (K))K_]
(A) Not satisfied

(Q) // inclusive: collision cross section at least 400 Å²? input: TTGFYSGFSEVAEKR [_TTGFYSGFSEVAEK(Dimethyl (K))R_]
(A) Satisfied

(Q) // inclusive: collision cross section at least 400 Å²? input: ALASIDSKLNQAK [_ALASIDSK(Dimethyl (K))LNQAK_]
(A) Satisfied

(Q) // inclusive: collision cross section at least 400 Å²? input: LQLEIDQKK [_LQLEIDQK(Dimethyl (K))K_]
(A) Not satisfied

(Q) // inclusive: collision cross section at least 400 Å²? input: VTLEVGKVIQQGR [_VTLEVGK(Dimethyl (K))VIQQGR_]
(A) Satisfied

(Q) // inclusive: collision cross section at least 400 Å²? input: ALLQAKASGK [_ALLQAK(Dimethyl (K))ASGK_]
(A) Not satisfied

(Q) // inclusive: collision cross section at least 400 Å²? input: DASTLQSQKAEGTGDAK [_DASTLQSQK(Dimethyl (K))AEGTGDAK_]
(A) Satisfied

(Q) // inclusive: collision cross section at least 400 Å²? input: GTVPDDAVEALADSLGKK [_GTVPDDAVEALADSLGK(Dimethyl (K))K_]
(A) Satisfied

(Q) // inclusive: collision cross section at least 400 Å²? input: VLTANSNPSSPSAAKR [_VLTANSNPSSPSAAK(Dimethyl (K))R_]
(A) Satisfied

(Q) // inclusive: collision cross section at least 400 Å²? input: GEVQVSDKER [_GEVQVSDK(Dimethyl (K))ER_]
(A) Not satisfied

(Q) // inclusive: collision cross section at least 400 Å²? input: LAEEENKAK [_LAEEENK(Dimethyl (K))AK_]
(A) Not satisfied

(Q) // inclusive: collision cross section at least 400 Å²? input: SLEEEGAAHSGKR [_SLEEEGAAHSGK(Dimethyl (K))R_]
(A) Satisfied

(Q) // inclusive: collision cross section at least 400 Å²? input: ASEALLKQLK [_ASEALLK(Dimethyl (K))QLK_]
(A) Not satisfied

(Q) // inclusive: collision cross section at least 400 Å²? input: VDIDAPDVSIEGPDAKLK [_VDIDAPDVSIEGPDAK(Dimethyl (K))LK_]
(A) Satisfied

(Q) // inclusive: collision cross section at least 400 Å²? input: GAEKTEVAEPR [_GAEK(Dimethyl (K))TEVAEPR_]
(A) Not satisfied

====

Hi there, I'd appreciate the recorded collision cross section for every entry that follows.
protocol.summary: collision cross section of modified peptide (TIMS, N2, iRT-aligned); higher = larger / more extended gas-phase ion
experimental.conditions: charge state: 2; modification: Succinyl
± gives the standard deviation.
# include the unit after the value

Record SDSGKPYYYNSQTK [_SDSGK(Succinyl)PYYYNSQTK_] . Reported collision cross section: 423.37 ± 1.1 Å²

Record TPNLYIYSKK [_TPNLYIYSK(Succinyl)K_] . Reported collision cross section: 387.96 ± 0.52 Å²

Record HELQANCYEEVKDR [_HELQANCYEEVK(Succinyl)DR_] . Reported collision cross section: 444.39 Å²

Record LLFSNTAAQKLR [_LLFSNTAAQK(Succinyl)LR_] . Reported collision cross section: 404.93 ± 0.55 Å²

Record GADFLVTEVENGGSLGSKK [_GADFLVTEVENGGSLGSK(Succinyl)K_] . Reported collision cross section: 480.22 ± 1.1 Å²

Record SGFGKFER [_SGFGK(Succinyl)FER_] . Reported collision cross section: 336.55 ± 1.3 Å²

Record SNEEGSEEKGPEVR [_SNEEGSEEK(Succinyl)GPEVR_] . Reported collision cross section: 403.42 ± 0.55 Å²

Record PGGEGPQCEKTTDVK [_PGGEGPQCEK(Succinyl)TTDVK_] . Reported collision cross section: 437.41 ± 1.1 Å²

Record DAEAAEATAEGALKAEK [_DAEAAEATAEGALK(Succinyl)AEK_] . Reported collision cross section: 437.62 ± 0.51 Å²

Record SLKLNTAEDAK [_SLK(Succinyl)LNTAEDAK_] . Reported collision cross section: 377.2 ± 0.87 Å²

Record GETASKLQSEISR [_GETASK(Succinyl)LQSEISR_] . Reported collision cross section: 399.77 ± 2 Å²

Record VGTASVLQPVKK [_VGTASVLQPVK(Succinyl)K_] . Reported collision cross section: 383.62 ± 0.87 Å²

Record INNFSADIKDSK [_INNFSADIK(Succinyl)DSK_] . Reported collision cross section: 402.07 ± 0.25 Å²

Record IVEKYGYTHLSAGELLR [_IVEK(Succinyl)YGYTHLSAGELLR_] . Reported collision cross section: 498.62 ± 0.45 Å²

Record VPTTEKPTVTVNFR [_VPTTEK(Succinyl)PTVTVNFR_] . Reported collision cross section: 427.05 ± 0.52 Å²

====

protocol.summary: collision cross section of modified peptide (TIMS, N2, iRT-aligned); higher = larger / more extended gas-phase ion
experimental.conditions: charge state: 2; modification: Methyl (K)
Assign class by collision cross section: not lower than 400 Å² means TRUE; lower than 400 Å² means FALSE.

(Q) // inclusive: collision cross section at least 400 Å²? input: ITESVAETAQTIKK [_ITESVAETAQTIK(Methyl (K))K_]
(A) TRUE

(Q) // inclusive: collision cross section at least 400 Å²? input: SEASSEFAKK [_SEASSEFAK(Methyl (K))K_]
(A) FALSE

(Q) // inclusive: collision cross section at least 400 Å²? input: DYSAPVNFISAGLKK [_DYSAPVNFISAGLK(Methyl (K))K_]
(A) TRUE

(Q) // inclusive: collision cross section at least 400 Å²? input: VTLEVGKVIQQGR [_VTLEVGK(Methyl (K))VIQQGR_]
(A) TRUE

(Q) // inclusive: collision cross section at least 400 Å²? input: VDIDAPDVSIEGPDAKLK [_VDIDAPDVSIEGPDAK(Methyl (K))LK_]
(A) TRUE

The measured values listed here are drawn from the supplement of paper PMC10598134.
